- Test name: Cytotoxicity against human oral epithelial cells (OEC) assessed as growth inhibition at 100 ug/mL incubated for 48 hrs by SRB assay relative to control
- Assay type: toxicity, cell-based, Oral epithelial cell
- Assay conditions: at 100 µg/mL, read-out: GI
Property name: inhibition at 48 h, 100 ug/mL
Answer format: number, then unit.

Take a look at these entries with their results.
• COc1cccc(/C=N/NC(=O)c2nnn(-c3ccc(F)cc3)c2C)c1OC = 13%
• COc1ccc(/C=N/NC(=O)c2nnn(-c3ccc(F)cc3)c2C)cc1OC = 33%
• COc1cccc(/C=N/NC(=O)c2nnn(-c3ccc([N+](=O)[O-])cc3)c2C)c1OC = 36%

Now let's try a different one.
Q: Consider the compound shown here: `Cc1c(C(=O)N/N=C/c2ccccc2)nnn1-c1ccc(Br)cc1` What is its recorded inhibition at 48 h, 100 ug/mL?
Result: 23%
